Test: NOD1 signaling inhibitors, primary screen, cell-based, luminescence, uHTS (AID 1578);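 note: HEK-293T reporter cells stimulated with the NOD1 agonist gamma-tri-DAP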
Details: NOD1-driven NF-kB luciferase reporter cells, at 4 µM
Out of some 290,000 compounds screened, about 3,000 (1%) were called active. Cut-off read from the data, not from the text of the source: active = inhibition mostly above about 36% (no sharp cut-off); inactive = mostly below about 34%. For the sample, actives were picked, then their nearest neighbours and some compounds at random.
Possible outcomes: yes for active, no for inactive

>  <compound>
COc1ccc(S(=O)(=O)N(C)c2ccc(C(=O)NC3CCCC3)cc2)cc1

>  <class name>
no

$$$$
>  <compound>
CC1=CN2C(=N)/C(=C/c3ccc(C)o3)C(=O)N=C2S1

>  <class name>
no

$$$$
>  <compound>
CC(C)(C)n1nc(-c2ccc(Cl)cc2)c2c(N)ncnc21

>  <class name>
no

$$$$
>  <compound>
COc1ccc(NC(=S)N2CCN(c3ccccn3)CC2)cc1

>  <class name>
no

$$$$
>  <compound>
Cc1[nH]n(-c2cccc(Cl)c2)c(=O)c1-c1ccccc1

>  <class name>
no

$$$$
>  <compound>
O=C1CC(c2ccccc2)=NN1c1nc(-c2ccccc2)cs1

>  <class name>
yes

$$$$
>  <compound>
CC1=CN2C(=N)/C(=C/c3ccco3)C(=O)N=C2S1

>  <class name>
no

$$$$
>  <compound>
CCCCNc1nc2ccccc2n1CC(=O)Nc1ccc2c(c1)OCCO2

>  <class name>
no

$$$$
>  <compound>
COC(CNC(=O)c1cn(C)c2ccc(S(=O)(=O)N(C)C3CCCCC3)cc2c1=O)OC

>  <class name>
no

$$$$
>  <compound>
O=[N+]([O-])c1ccc(COc2ccc(-c3[nH]ncc3-c3ccc(Cl)cc3)c(O)c2)cc1

>  <class name>
no

$$$$
>  <compound>
N#C/C(=C\c1ccc2c(c1)OCCO2)C(=O)Nc1ccc(C(=O)O)cc1

>  <class name>
no

$$$$
>  <compound>
O=C(COC(=O)Cc1cccs1)Nc1ccc(F)c(F)c1F

>  <class name>
no

$$$$
>  <compound>
COC(=O)c1ccc2nc(C)c(C)nc2c1

>  <class name>
no

$$$$
>  <compound>
CC1=NN(c2nc(-c3ccc(Cl)cc3)cs2)C(=O)C1

>  <class name>
no

$$$$
>  <compound>
Cc1ccc(Nc2nc(N)nc(CSC(=S)N3CCOCC3)n2)c(C)c1

>  <class name>
no

$$$$
>  <compound>
COc1ccccc1-c1cn[nH]c1-c1ccc(OCc2ccccc2F)cc1O

>  <class name>
no

$$$$
>  <compound>
NC(=O)c1ccc(C(=O)N/N=C/c2cccc(Oc3ccccc3)c2)cc1

>  <class name>
no

$$$$
>  <compound>
CCOc1cc(C2/C(=C(/O)c3ccc(OC)cc3)C(=O)C(=O)N2CC2CCCO2)ccc1O (stereo not drawn)

>  <class name>
no

$$$$
>  <compound>
CN1CCN(S(=O)(=O)c2cccc(C(=O)Nc3sc4c(c3-c3nc5ccccc5[nH]3)CCCC4)c2)CC1

>  <class name>
no

$$$$
>  <compound>
CC(=O)Nc1ncnc2c1c(-c1ccc(Cl)cc1)nn2C(C)(C)C

>  <class name>
no

$$$$
>  <compound>
CN1CCN(C(=S)c2ccc(Cl)cc2)CC1

>  <class name>
no

$$$$
>  <compound>
Cc1ccc(CN2C(=O)CSC2c2ccc(F)cc2)cc1 (stereo not drawn)

>  <class name>
no

$$$$
>  <compound>
NC(=O)COc1ccc(/C=N\NC(=O)c2ccc(-c3ccccc3)cc2)cc1

>  <class name>
no

$$$$
>  <compound>
COc1ccc(/C=C2\N=C(SC)N(C)C2=O)cc1

>  <class name>
no

$$$$
>  <compound>
COc1ccc(-c2cn[nH]c2-c2ccc(OCc3ccc([N+](=O)[O-])cc3)cc2O)cc1OC

>  <class name>
no

$$$$
>  <compound>
O=C(O)CCn1[nH]c(=O)c2ccccc2c1=O

>  <class name>
no

$$$$
>  <compound>
O=S(=O)(NC1CCCC1)c1cccc(-c2nnc(-c3ccccc3)o2)c1

>  <class name>
no

$$$$
>  <compound>
CC(=O)c1ccc(NC(=O)CCc2nnc3ccc(N4CCC5(CC4)OCCO5)nn23)cc1

>  <class name>
no

$$$$
>  <compound>
CC1=CN2C(=N)/C(=C/c3ccc([N+](=O)[O-])o3)C(=O)N=C2S1

>  <class name>
yes

$$$$
>  <compound>
CC(=O)Nc1ccc(NC(=O)c2cc(=O)c3cc(C)c(C)cc3o2)cc1

>  <class name>
no

$$$$
>  <compound>
COc1cc(/C=C2/SC(=S)N(CC(=O)NC(C)(C)C)C2=O)cc(OC)c1OC

>  <class name>
no

$$$$
>  <compound>
CC1Cc2ccccc2N1C(=O)CSc1nnc2c(n1)[nH]c1ccccc12 (stereo not drawn)

>  <class name>
no

$$$$
>  <compound>
COc1ccc(-c2cnc(N)nc2-c2ccc(OCc3ccccc3)cc2O)cc1

>  <class name>
no

$$$$
>  <compound>
CCOC(=O)c1c(CSc2ccc(C)cc2)n(C)c2cc(Br)c(O)c(CN(C)C)c12

>  <class name>
no

$$$$
>  <compound>
CCSC1=N/C(=C\c2ccccc2)C(=O)N1c1ccc(OC)cc1

>  <class name>
no

$$$$
>  <compound>
COc1ccc(-c2c(NC(=O)c3ccco3)n(-c3ccccc3)nc(C)c2=O)cc1

>  <class name>
no

$$$$
>  <compound>
COCCN1Cc2cccc(C(=O)Nc3cccc(-c4nc5ccccc5[nH]4)c3)c2C1=O

>  <class name>
no

$$$$
>  <compound>
CC1=CN2C(=N)/C(=C/c3ccc(Sc4ccc(C)cc4)o3)C(=O)N=C2S1

>  <class name>
no

$$$$
>  <compound>
CC1=CN2C(=N)/C(=C/c3ccc(Sc4ccc(Cl)cc4)o3)C(=O)N=C2S1

>  <class name>
yes

$$$$
>  <compound>
CC1Cc2ccccc2N1C(=O)CSc1nnc2c(n1)[nH]c1ccc(F)cc12 (stereo not drawn)

>  <class name>
yes

$$$$
>  <compound>
CC1=NN(c2nc(-c3ccccc3)cs2)C(=O)C1

>  <class name>
no

$$$$
>  <compound>
CCOC(=O)c1c(C)[n+]([O-])c2ccc3c(non3O)c12

>  <class name>
no

$$$$
>  <compound>
O=C(c1cccc(S(=O)(=O)N2CCc3ccccc3C2)c1)N1CCN(c2ccc(O)cc2)CC1

>  <class name>
no

$$$$
